target: T1, human MSLN-FL-his protein (human, UniProt Q13421 296-580); assay: ELISA on coated antigen, antibody 100 nM
T1 construct: Self-made in HEK293E cells; also called human MSLN full-length protein; hMSLN-FL-his; not shown: His tag
T1 sequence (Q13421 other isoform, or with tags, fused parts or gaps): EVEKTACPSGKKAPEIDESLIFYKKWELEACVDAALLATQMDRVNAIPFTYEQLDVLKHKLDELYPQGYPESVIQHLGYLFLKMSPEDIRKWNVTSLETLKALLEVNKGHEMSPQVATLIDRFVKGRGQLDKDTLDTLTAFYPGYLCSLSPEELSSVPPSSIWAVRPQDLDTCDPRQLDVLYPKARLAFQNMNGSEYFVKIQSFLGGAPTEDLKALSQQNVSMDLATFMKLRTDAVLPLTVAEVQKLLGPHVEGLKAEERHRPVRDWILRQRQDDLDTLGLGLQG
ASSAY ENDPOINT: OD450 (OD450)
Numbers only, in OD450.

Reference set, count: 2
INSERT INTO assay_data (binder, assay_endpoint, readout_unit, assay_value) VALUES
  ('S009-F3.80.22 (antibody, human IgG1, kappa, V domains shown, Human-murine chimeric antibody: murine VH/VL on human IgG1 heavy and kappa light constant regions) VH: QVQLQQSGAELVRPGASVTLSCKASGYTFTDYEIHWVKQTPVHGLEWIGAFDPEIGGSAYNQKFKDRATLTADKSSSTAYMELHSLTAEDSAVYYCTDYYGSSSGYFDVWGTGTTVTVSS VL: DVVMTQTPLSLPVSLGDQASISCRSSQSLEHNNGNTYLHWFLHKPGQSPKLLIYKVSNRFSGVPDRFSGSGSGTDFTLKISRVEAEDLGVYFCSQSTHVPFTFGSGTKLEIKR', 'OD450', 'OD450', 2.31),
  ('S009-F3.74.20 (antibody, human IgG1, kappa, V domains shown, Human-murine chimeric antibody: murine VH/VL on human IgG1 heavy and kappa light constant regions) VH: RVQLQQSGAELVRPGASVTLSCKASGYTFTDSEMHWVKQTPVHGLEWIGAIDPEIDGTAYNQNFRDKAILTADKSSSTAYMELRSLTSEDSAVYYCTTYFGSGYGYFDVWGTGTTVTVSS VL: DVVMTQTPLSLSVSLGDQASISCRSSQSLVYSNGNTYLHWFLQKPGQSPKLLIYKVSNRFSGVPDRFSGSGSGTDFTLKINRVEAEDLGVYFCSQSTHIPFTFGAGTKLELKR', 'OD450', 'OD450', 2.17);

Here is another binder to look at.
Lookup: Any idea what its OD450 is? The binder is S009-F3.16.1 (antibody, human IgG1, kappa, V domains shown, Human-murine chimeric antibody: murine VH/VL on human IgG1 heavy and kappa light constant regions) VH: EVKFEESGGGLVQPGGSMKLSCVASGFTFSNYWMNWVRQSPEKGLEWVAQIRLKSDNYATHYAESVKGRFSISRDDSKSSVYLQMNNLRAEDTGIYYCSVGTGGYWGQGTTLTVSS VL: DIVLTQSPASLALSPGKRATISCRASESVSIIGTDVIHWFQQKPGQPPKLLIYHASNLETGVPARFSGSGSRTDFTLTIDPVEEDDVAIYYCLQSRKIPWTFGGGTKLEIKR
Found: 0.12
